Measured Produced peptide, listed per entry.
- Test system: peptide-producing enzyme (Mono S fraction) from Empedobacter brevis strain FERM BP-8113
- protocol-details: Enzyme substrate specificity (1)-(10), (13), (14)
- Type: biochemical
- protocol-conditions: 100 mM L-alanine methyl ester hydrochloride, L-amino acid 150 mM, pH 9.0, 25° C., 3 hours
Residues, ends and D or L forms follow the SMILES beside them.
reported-metric: Produced peptide (mM)

compound="C[C@H](N)C(=O)N[C@@H](CC(=O)O)C(=O)O [L-Ala-L-Asp] (H-Ala-Asp-OH)" measured_result=2.1
compound="C[C@H](N)C(=O)N[C@@H](CCCCN)C(=O)O [L-Ala-L-Lys] (H-Ala-Lys-OH)" measured_result=71.8
compound="CC(C)[C@H](NC(=O)[C@H](C)N)C(=O)O [L-Ala-L-Val] (H-Ala-Val-OH)" measured_result=20.8
compound="C[C@H](N)C(=O)N[C@@H](C)C(=O)O [L-Ala-L-Ala] (H-Ala-Ala-OH)" measured_result=25.4
compound="C[C@H](N)C(=O)N[C@H](C(=O)O)[C@@H](C)O [L-Ala-L-Thr] (H-Ala-Thr-OH)" measured_result=53.9
compound="C[C@H](N)C(=O)N[C@@H](CC(N)=O)C(=O)O [L-Ala-L-Asn] (H-Ala-Asn-OH)" measured_result=65.5
compound="CC(C)C[C@H](NC(=O)[C@H](C)N)C(=O)O [L-Ala-L-Leu] (H-Ala-Leu-OH)" measured_result=45.3
compound="C[C@H](N)C(=O)N[C@@H](CCCN=C(N)N)C(=O)O [L-Ala-L-Arg] (H-Ala-Arg-OH)" measured_result=88.0
compound="C[C@H](N)C(=O)N[C@@H](CO)C(=O)O [L-Ala-L-Ser] (H-Ala-Ser-OH)" measured_result=62.5
